This collection of values is drawn from paper PMC11742280.

Assay: Plasma pharmacokinetics of pevonedistat (LC/MS/MS, noncompartmental analysis)
Type: in vivo, human
Conditions: human, plasma, iv, 37 mg/m2, cycle 1 day 1; pevonedistat 37 mg/m^2 IV, all 37 mg/m^2 patients (dose levels 3-4); mean±SD, n=6
quantityName: AUC(0-inf)

NS(=O)(=O)OC[C@@H]1C[C@@H](n2ccc3c(N[C@H]4CCc5ccccc54)ncnc32)C[C@@H]1O [Pevonedistat]
4.78 µM·h

---

Assay: Plasma pharmacokinetics of belinostat and belinostat glucuronide (LC/MS/MS, noncompartmental analysis)
Settings: human, plasma, iv, preEOI Cmax (peak plasma concentration), cycle 1 day 1; dose level 5, belinostat 1000 mg/m^2 IV (pevonedistat 50 mg/m^2); mean±SD, n=3
quantityName: Cmax (µM)

O=C(/C=C/c1cccc(S(=O)(=O)Nc2ccccc2)c1)NO [Belinostat]
114

---

Assay: Plasma pharmacokinetics of pevonedistat (LC/MS/MS, noncompartmental analysis)
Type: in vivo, human
Conditions: human, plasma, iv, cycle 1 day 1; dose level 1, pevonedistat 20 mg/m^2 IV (belinostat 800 mg/m^2); n=2, actual values
quantityName: half-life (h)

NS(=O)(=O)OC[C@@H]1C[C@@H](n2ccc3c(N[C@H]4CCc5ccccc54)ncnc32)C[C@@H]1O [Pevonedistat]
5.89

---

Assay: Plasma pharmacokinetics of belinostat and belinostat glucuronide (LC/MS/MS, noncompartmental analysis)
Conditions: human, plasma, iv, T1/2, cycle 1 day 1; dose level 2, belinostat 800 mg/m^2 IV (pevonedistat 25 mg/m^2); mean±SD, n=3
quantityName: half-life

O=C(/C=C/c1cccc(S(=O)(=O)Nc2ccccc2)c1)NO
1.36 h

---

Assay: Plasma pharmacokinetics of pevonedistat (LC/MS/MS, noncompartmental analysis)
Assay type: in vivo, human
Settings: human, plasma, iv, cycle 1 day 1; dose level 3, pevonedistat 37 mg/m^2 IV (belinostat 800 mg/m^2); mean±SD, n=3
quantityName: AUC(0-inf) (µM·h)

NS(=O)(=O)OC[C@@H]1C[C@@H](n2ccc3c(N[C@H]4CCc5ccccc54)ncnc32)C[C@@H]1O
4.95

---

Assay: Plasma pharmacokinetics of pevonedistat (LC/MS/MS, noncompartmental analysis)
Type: in vivo, human
Conditions: human, plasma, iv, cycle 1 day 1; dose level 2, pevonedistat 25 mg/m^2 IV (belinostat 800 mg/m^2); mean±SD, n=3; read-out: preEOI Cmax (peak plasma concentration)
quantityName: Cmax (nM)

NS(=O)(=O)OC[C@@H]1C[C@@H](n2ccc3c(N[C@H]4CCc5ccccc54)ncnc32)C[C@@H]1O
372

---

Test: Plasma pharmacokinetics of belinostat and belinostat glucuronide (LC/MS/MS, noncompartmental analysis)
Conditions: human, plasma, iv, preEOI Cmax (peak plasma concentration), cycle 1 day 1; dose level 2, belinostat 800 mg/m^2 IV (pevonedistat 25 mg/m^2); mean±SD, n=3
quantityName: Cmax (µM)

O=C(/C=C/c1cccc(S(=O)(=O)Nc2ccccc2)c1)NO [Belinostat]
120

---

Experiment: Plasma pharmacokinetics of belinostat and belinostat glucuronide (LC/MS/MS, noncompartmental analysis)
Details: human, plasma, iv, Cl (systemic clearance), cycle 1 day 1; dose level 3, belinostat 800 mg/m^2 IV (pevonedistat 37 mg/m^2); n=2, actual values
quantityName: clearance (mL/min)

O=C(/C=C/c1cccc(S(=O)(=O)Nc2ccccc2)c1)NO [Belinostat]
1030
